tested on: H4 (Low Grade Glioma); experiment: combination Emax (second highest fraction inhibited in the dose matrix, 72 h); higher = more inhibition; extreme values may be limits of the assay
METRIC NAME: combination Emax

MOLECULE	TESTED TARGET	REPORTED RESULT
Cc1c2c(nn1C)CSCc1cc(n(C)n1)CSc1cc(c3ccccc3c1)OCCCc1c(C(=O)O)n(C)c3c-2c(Cl)ccc13 [AZD5991] + CC(=O)O[C@H]1C(=O)[C@@]2(C)[C@H]([C@H](OC(=O)c3ccccc3)[C@]3(O)C[C@H](OC(=O)[C@H](O)[C@@H](NC(=O)c4ccccc4)c4ccccc4)C(C)=C1C3(C)C)[C@]1(OC(C)=O)CO[C@@H]1C[C@@H]2O [Paclitaxel] (first compound max 1 µM, 7x7, partner max 3 µM)	H4 (Low Grade Glioma)	0.995
CN(CCO)CC[C@H](CSc1ccccc1)Nc1ccc(S(=O)(=O)NC(=O)c2ccc(N3CCC([C@@H](O)c4ccccc4-c4ccc(Cl)cc4)CC3)cc2)cc1S(=O)(=O)C(F)(F)F [AZD4320] + Cn1cnc2c(F)c(Nc3ccc(Br)cc3Cl)c(C(=O)NOCCO)cc21 [Selumetinib] (first compound max 1 µM, 7x7, partner max 3 µM)	H4 (Low Grade Glioma)	0.418
COc1cccc(OCCCN)c1-c1cc(Nc2cnc(C#N)cn2)n[nH]1 [Prexasertib] + C[C@@H]1COCCN1C2=NC(=NC(=C2)C3(CC3)[S@](=N)(=O)C)C4=C5C=CNC5=NC=C4 [AZD6738] (first compound max 1 µM, 7x7, partner max 10 µM)	H4 (Low Grade Glioma)	0.91
C=CCn1c(=O)c2cnc(Nc3ccc(N4CCN(C)CC4)cc3)nc2n1-c1cccc(C(C)(C)O)n1 [AZD1775] + C[C@@H]1COCCN1C2=NC(=NC(=C2)C3(CC3)[S@](=N)(=O)C)C4=C5C=CNC5=NC=C4 [AZD6738] (first compound max 1 µM, partner max 10 µM)	H4 (Low Grade Glioma)	0.994
CN(CCO)CC[C@H](CSc1ccccc1)Nc1ccc(S(=O)(=O)NC(=O)c2ccc(N3CCC([C@@H](O)c4ccccc4-c4ccc(Cl)cc4)CC3)cc2)cc1S(=O)(=O)C(F)(F)F [AZD4320] + C[C@@H](Nc1cc(F)cc(F)c1)c1cc(C(=O)N(C)C)cc2c(=O)cc(N3CCOCC3)oc12 [AZD8186] (first compound max 1 µM, 7x7, partner max 3 µM)	H4 (Low Grade Glioma)	0.583
C[C@@H](Nc1cc(F)cc(F)c1)c1cc(C(=O)N(C)C)cc2c(=O)cc(N3CCOCC3)oc12 [AZD8186] + C1CN(CCC1(C(=O)N[C@@H](CCO)C2=CC=C(C=C2)Cl)N)C3=NC=NC4=C3C=CN4 [AZD5363] (first compound max 10 µM, 7x7, partner max 10 µM)	H4 (Low Grade Glioma)	0.597

====

test system: 647-V (Bladder Carcinoma); assay: Bliss excess, mean over the matrix (fraction); higher = more synergy;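 also: after 72 h of two-drug dosing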
Use 0.03 as the dividing line for Bliss excess, with the line itself on the yes (1) side and lower values as no (0).

MOLECULE	CLASS
COc1cccc(OCCCN)c1-c1cc(Nc2cnc(C#N)cn2)n[nH]1 [Prexasertib] + Cc1cc2ncnn2cc1Nc1ncc2c(n1)n(C1CCOCC1)c(=O)n2C [AZD7648] (first compound max 1 µM, 7x7, partner max 10 µM)	no (0)
COc1nnc2ccc(N3CCC(c4ccc(OCCN5CCN(C)C(=O)[C@H]5C)cc4)CC3)nn12 [AZD5153] + CN(CC[C@H](CSC1=CC=CC=C1)NC2=C(C=C(C=C2)S(=O)(=O)NC(=O)C3=CC=C(C=C3)N4CCC(CC4)[C@H](C5=CC=CC=C5C6=CC=C(C=C6)Cl)O)S(=O)(=O)C(F)(F)F)CCO [AZD4320] (first compound max 1 µM, 7x7, partner max 1 µM)	yes (1)
Cc1c2c(nn1C)CSCc1cc(n(C)n1)CSc1cc(c3ccccc3c1)OCCCc1c(C(=O)O)n(C)c3c-2c(Cl)ccc13 [AZD5991] + Cc1cc2ncnn2cc1Nc1ncc2c(n1)n(C1CCOCC1)c(=O)n2C [AZD7648] (first compound max 1 µM, 7x7, partner max 10 µM)	no (0)
Cc1c2c(nn1C)CSCc1cc(n(C)n1)CSc1cc(c3ccccc3c1)OCCCc1c(C(=O)O)n(C)c3c-2c(Cl)ccc13 [AZD5991] + C1CN(CCC1(C(=O)N[C@@H](CCO)C2=CC=C(C=C2)Cl)N)C3=NC=NC4=C3C=CN4 [Capivasertib] (first compound max 1 µM, 7x7, partner max 3 µM)	no (0)
COc1cccc(OCCCN)c1-c1cc(Nc2cnc(C#N)cn2)n[nH]1 [Prexasertib] + C=CCn1c(=O)c2cnc(Nc3ccc(N4CCN(C)CC4)cc3)nc2n1-c1cccc(C(C)(C)O)n1 [AZD1775] (first compound max 1 µM, partner max 1 µM)	yes (1)
